Entry source: patent US20150152192A1

# SYSTEM: T1, Ang2 with Y460 mutated with alanine, tagged with FLAG (human, UniProt O15123 19-496, limits assumed)
# T1 sequence: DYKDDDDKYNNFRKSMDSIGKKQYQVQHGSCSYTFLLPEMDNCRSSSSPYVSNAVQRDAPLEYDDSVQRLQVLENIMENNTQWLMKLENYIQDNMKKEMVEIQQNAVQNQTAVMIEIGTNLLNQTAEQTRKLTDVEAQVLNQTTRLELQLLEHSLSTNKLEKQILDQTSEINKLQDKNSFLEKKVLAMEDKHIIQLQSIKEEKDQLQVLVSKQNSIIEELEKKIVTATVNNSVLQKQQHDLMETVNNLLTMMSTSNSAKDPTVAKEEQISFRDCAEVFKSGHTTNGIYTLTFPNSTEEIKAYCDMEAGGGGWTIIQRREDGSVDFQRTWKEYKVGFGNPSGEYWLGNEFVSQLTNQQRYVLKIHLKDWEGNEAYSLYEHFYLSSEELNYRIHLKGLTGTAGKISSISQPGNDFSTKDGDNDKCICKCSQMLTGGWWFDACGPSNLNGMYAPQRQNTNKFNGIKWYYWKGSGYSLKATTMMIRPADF
# PROTOCOL DESCRIPTION: ELISA, scFv coated, 250 ng FLAG-tagged Ang2 mutant, anti-FLAG-HRP
Below: a set of entries, each annotated with reported Relative binding (%) with Mutant Ang2 compared to the binding with native Ang2.
RECORDED ENDPOINT: Relative binding (%) with Mutant Ang2 compared to the binding with native Ang2

[
  {
    "BINDER": "SAIT-ANG-2-AB-4-C11 (scFv form) (scFv, V domains shown, scFv from a phage display library) VH: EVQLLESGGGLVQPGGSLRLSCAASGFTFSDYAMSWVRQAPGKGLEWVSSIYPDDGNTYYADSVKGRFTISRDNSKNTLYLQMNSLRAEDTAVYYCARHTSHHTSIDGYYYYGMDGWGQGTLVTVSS VL: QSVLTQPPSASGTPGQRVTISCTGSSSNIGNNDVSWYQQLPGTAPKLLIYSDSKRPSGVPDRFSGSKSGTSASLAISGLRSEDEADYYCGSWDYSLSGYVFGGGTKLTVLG",
    "RECORDED MEASUREMENT": 74.3
  },
  {
    "BINDER": "SAIT-ANG-2-AB-4-F5 (scFv form) (scFv, V domains shown, scFv from a phage display library) VH: EVQLLESGGGLVQPGGSLRLSCAASGFTFSDYDMSWVRQAPGKGLEWVSSISHGDSNKYYADSVKGRFTISRDNSKNTLYLQMNSLRAEDTAVYYCAKSSGIQESPPTYYYYGMDVWGQGTLVTVSS VL: QSVLTQPPSASGTPGQRVTISCSGSSSNIGSNAVNWYQQLPGTAPKLLIYADSNRPSGVPDRFSGSKSGTSASLAISGLRSEDEADYYCGSWDYSLSGYVFGGGTKLTVLG",
    "RECORDED MEASUREMENT": 21.8
  },
  {
    "BINDER": "SAIT-ANG-2-AB-4-F11 (scFv form) (scFv, V domains shown, scFv from a phage display library) VH: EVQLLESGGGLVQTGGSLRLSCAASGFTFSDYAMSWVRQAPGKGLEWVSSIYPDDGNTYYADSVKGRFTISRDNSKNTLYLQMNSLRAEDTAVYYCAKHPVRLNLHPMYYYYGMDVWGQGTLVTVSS VL: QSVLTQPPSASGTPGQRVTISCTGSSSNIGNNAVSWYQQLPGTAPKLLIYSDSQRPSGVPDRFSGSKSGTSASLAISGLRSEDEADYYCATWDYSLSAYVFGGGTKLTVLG",
    "RECORDED MEASUREMENT": 96.1
  },
  {
    "BINDER": "SAIT-ANG-2-AB-2-E6 (scFv form) (scFv, V domains shown, scFv from a phage display library, partly purified from E. coli periplasm on Ni-NTA and detected with anti-HA) VH: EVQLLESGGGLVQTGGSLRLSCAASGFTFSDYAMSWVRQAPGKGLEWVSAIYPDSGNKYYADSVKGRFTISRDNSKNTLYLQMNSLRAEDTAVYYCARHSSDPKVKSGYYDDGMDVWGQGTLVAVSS VL: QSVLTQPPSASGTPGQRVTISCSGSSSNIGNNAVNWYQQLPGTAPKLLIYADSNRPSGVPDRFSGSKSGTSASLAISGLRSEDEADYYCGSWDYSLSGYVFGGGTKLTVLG",
    "RECORDED MEASUREMENT": 40
  },
  {
    "BINDER": "SAIT-ANG-2-AB-8-A5 (scFv form) (scFv, V domains shown, scFv from a phage display library) VH: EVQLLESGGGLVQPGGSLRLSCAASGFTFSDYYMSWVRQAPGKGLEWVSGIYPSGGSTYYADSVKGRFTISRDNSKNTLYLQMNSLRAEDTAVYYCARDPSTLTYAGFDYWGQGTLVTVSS VL: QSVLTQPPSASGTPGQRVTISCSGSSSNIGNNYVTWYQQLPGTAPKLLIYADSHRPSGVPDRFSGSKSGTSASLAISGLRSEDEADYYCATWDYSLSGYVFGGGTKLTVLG",
    "RECORDED MEASUREMENT": 91.6
  },
  {
    "BINDER": "SAIT-ANG-2-AB-3-D3 (scFv form) (scFv, V domains shown, scFv from a phage display library) VH: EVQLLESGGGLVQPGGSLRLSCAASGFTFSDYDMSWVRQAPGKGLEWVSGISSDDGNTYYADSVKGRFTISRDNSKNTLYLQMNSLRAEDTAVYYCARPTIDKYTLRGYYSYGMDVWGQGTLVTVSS VL: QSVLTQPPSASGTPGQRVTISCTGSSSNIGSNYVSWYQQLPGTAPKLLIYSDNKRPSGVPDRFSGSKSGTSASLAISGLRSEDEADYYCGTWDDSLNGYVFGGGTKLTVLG",
    "RECORDED MEASUREMENT": 95.1
  }
]
